Sourced from the nanobody polyreactivity screen of Harvey et al. (2022)

experiment: yeast display, Sf9 membrane polyspecificity reagent, FACS + sequencing; frameworks hold sequencing errors

| SEQUENCE_RECORD | polyreactivity (PSR sort gate) |
| --- | --- |
| QVQLVESGGRLVQEGGSLRLSCAASGRTFSKYAMGWYRQAPGKERELVAAITWRGGRTYYADSVNGRFTISRDNAKNTVYLQMNSLKPEDTAVYYCAADPSIYRIYQYTNRYDYWGQGTQVTVSS | high polyreactivity |
| QVQLVESGGGLVQAGGSLRLSCAASGLIFSWYAMGWYRQAPGKEREFVAGISKGGDSTYYADSVKGRFTISRDNAKNTVYLQMNSLKPEDTAVYYCAADWWQGTSHYWGGAYNYWGQGTQVTVSS | low polyreactivity |
| QVQLLESGGGLVQAGGTLRLSCAASGSTFAKYGMGWYRQAPGKERELVAAISRSGGRTYYADSVKGRFTISRDNAKNTVYLQMNSLKPEDTAVYYCATDGIRLTRHRDYDYWGQGTQVTVSS | low polyreactivity |
| QVQLVESGGGLVQAGGSLRLSCAASGSIFYGYAMGWYRQAPGKERELVAAIRYSDGSTYYADSVKGRFTISRDNAKNTVYLQMNSLKPEDTAVYYCAKKRRNYIGYYYWGQGTQVTVSS | high polyreactivity |
| QVQLVESGGGLVQAGGSLSLSCAASGRIFYVNTMGWYRQAPGKERELVATISSAASTNYADSVKGRFTISRDNAKNTVYLQMNSLKPEDTAVYYCNASRLSRLSALSGFYSWGQGTQVTVSS | low polyreactivity |
| QVQLVESGVGLVQAGGSLRLSCAASGSIFYENAMGWYRQEPGKEREFVATIDLIGDRTFYADSVKVRFTISRDNAKNTVYLQMNSLKPEDTAVYYCAAERVGVFFRYDYWGQGTQVTVSS | low polyreactivity |
| QVQLVESGGGLVQAGGSLRLRCAASGSTFGRNTMGWYRQAPGKERELVAAISKSGGYTRYADSVKGRFTISRDNAKNTVYLQMNSLKPEDTAVYYCAARVYSLGYGGDYWGQGTQVTVSS | high polyreactivity |
| QVQLQESGGGLVQAGGSLSLSCAESGTISFTRDMVWYRQAPGKEREFVASIDRGASTYYADSVKGRFTISRDNAKNTVYLQMNSLKPEDSAVYYKAVIAPFYSSFAYWGQGTQVTVSS | high polyreactivity |
| QVQLVESGGGLVQAGGSLRLTCAASGITLYNYAMGWYRQAPGKERELVAAISLSGGRTYYADSVKGRFTISRDNAKNTVYLQMNSLKPEDTAVYYCAADWLNSDPYNYWGQGTQVTVSS | low polyreactivity |
| QVQLVESGGAIVQAGRSLRLSCAASGNIFESYGMGWYRQAPGKERELVATINTSSGSTYYADSVKGRFTISRDNAKYTVYLQMNRLKPEDTAVYYCAVRPKTSWYSWYYLGQGTQVTVSS | low polyreactivity |
| QVQLVESGGGLVQAGGSLRLSCAASGYIFGTYGMGWYRQAPGKERELVAGISRSGTSTYYADSVKGRFTISRDNAKNTVYLQMNSLKPEDTAVYYCAAVSRTRYEYWGQGTQVTVSS | high polyreactivity |
| QVQLVESGGGLVQAGGSLRLSCAASGSTFYRYAMGWYRQAPGKERELVAAIRGSGGRTYYADSVKGRFTISRDNAKNTVYLQMNSLKPEDTAVYYCAAYRGVSQKGDYWGEGTQVTVSS | high polyreactivity |
| QVQLVESGGGLVQAGGILRLSCAASGLTFAKYAMGWYRQAPGKERELVAAITKSSGSTYYADSVKGRFTISRDNAKNTVYFQMNSLKPEDTAVYYCAAGIYAFRRHREEYHYWGQGTQVTVSS | high polyreactivity |
| QVQLVESGGGLVQAGGSLRLSCAASGRTLKYNAKGGNRQAPGKARELVAALTNSGTRTYYADSVKGRFTISRDNAKNTVYLQMNSQKPEDTAVYYCAKDSYPYLRVGHLKYRVKTYGHWGQGTQVTVSS | high polyreactivity |
| QVQLVESGGGLVQAGGSLRLSCAASGSTFGRYVMGWYRQAPGKERELVAAISKNAGSTYYADSVKGRFTISRDNAKNTVYLHMNSLKPEDTAVYYCAADWRTKGYDSLGQGTQVTVSS | high polyreactivity |
| QVQLVESGGGLVQAGGSLRLSCAASGSIFNPYDMGWYRQAPGKERELVATISGGGGSTYYADSVKGRFTISRDNAKNTVYLQMNSLKPEDTAVYYCNKTDFNTNDLKFDYWGQGTQVTVSS | low polyreactivity |
| QVQLVESGGGLVQAGGSLSLSCAASGRIFYRNAMGWYRQAPGKERELVAGITRGGSTNYADSVKGRFTISRDNAKNTVYLQMNSLKPEDTAVYYCAKAIPAKFYSEAGYDYWGQGTQVTVSS | low polyreactivity |
| QVQLVESGGGLVQAGGSLRLSCAASGSIFHYYAMGWYRQAPGKERELVAAISWSGGRTNYADSVKGRFTISRDNAKNTVYLQMNSLKPEDTAVYYCAAAERSYSGGGKIGKYYYWGQGTQVTVSS | high polyreactivity |
| QVQLVESGGGLVQAGGSLRLSCAASGSIFPLYDMGWYRQAPGKERELVAGITGSGGSSYYADSVKGRFTISRDNAKNTVYLQMNSLKPEDTAVYYCAADYSLYGWWFRNDYWGQGTQVTVSS | low polyreactivity |
| QVQRVESGGGLVQAGGSLRLSCAASGSTFVGYAMGWYRQAPGKERELVAAINDSGGSTYYADSVKGRFTISRDNAKNTVYLQMNSLKPEDTAVYYCAADSSGTSWYTFDYWGQRTQVTVSS | low polyreactivity |
| QVQLVESVGGLVQAGGSLRLSCAASGGKFISYAMGRYRQAPRKERELVAAITSSGGSTYDADSVKGRFTISRDDAKNTVYLQMNSLKPEDTGVYYCAADHSTVLDVGSWGQGTQVTVSS | low polyreactivity |

---

assay: yeast display, Sf9 membrane polyspecificity reagent, FACS + sequencing; frameworks hold sequencing errors

| SEQUENCE_RECORD | polyreactivity (PSR sort gate) |
| --- | --- |
| QVQLVESGGGLVQAGGSLRLSCAASGFIFRGYGMGWYRQAPGKERELVASITTGGRTNYADSVKGRFTISRDNAKNTVYVQMNSLKPEDTAVYYCAATYYLRLRRPYWQGFNYWGQGTQVTVSS | high polyreactivity |
| QVQLVESGGGLVQAGGSLRLSCAASGSTFGWYTMGWYRQAPGKERELVAAISSGGRTYYADSVKGRFTISRDNEKNTVYLQMNILKPEDTAVYYCAAGIYSSRHSPYGYWGQGTQVTVSS | high polyreactivity |
| QVQLVESGGGLVQAGGSLRLSCAASGSIFLVYGMGWYRPAPGKERELVAAISRTGGRTYYADSVKGRFTISRDNSKNTVYLQMNSLKPEDTAVYYCAAAAQRPEGYYWGQGTQVTVSS | high polyreactivity |
| QVQLVESGGGLVQAGGSLRLSCAASGITFSRNGMGWYRQAPGKERELVAAISTSGDSTDYADSVKGRFTISRDNAKNTVYLQMNSLKPEDTAVYYCATEWSYYNYGYDYWGQGTQVTVSS | low polyreactivity |
| QVQLVESGGGLVQAGGSLRLSCAASGSIFPVNAMGWYRQAPGKEREFVAAINVIGGSTYYADSVKGRFTISRDNAKNTVYLQMNSLKPEVTAVYYCAVEGYSILFGMDYLGQGTQVTVSS | low polyreactivity |
| QVQLVESGGGLVQAGGSLRLSCAASGSNFVRNVMGWYRQAPGKERELVAGISWNGGSTFYADSVKGRFTISRDNAKNTVYLQMNCLKPEDTAVYYCATPYGRHGWFYLYDYWGQGTLVTVSS | low polyreactivity |
| QVQLVESGGGLVQAGGSLRLSCAASGYIFASYAMGWYRPAPGKERELVAAISIGGNTNYADSVKGRFTISRDNAKNTVYLQMNSLKPEDTAVYYCAAKTPRYRYGYWRQGTQVTVSS | low polyreactivity |
| QVQLVESGGGLVQAGGSLRLTCAATGSILSRYAMGWYRLAPGKERELVATITRRGGSTFYADSVKGRFTISRDIAKNTVYLQMNSLKPEDTAVYYCAVGRLFWGQGTQVTVSS | low polyreactivity |
| QVQLVESGGGLVQAGGSLSLICAASGRILSGNAMVWYRQAPGKERELVAAITNAGITKYAVSVKGRFTISRDNAKNTVYLQMNSLKPEHTEVYYCASDRYAYKLYDYWGQGTQVTVSS | low polyreactivity |
| QVQLVESGGGLVQAGGSLRLSCAASGFTFRAYAMGWYRQAPGKERELVAGITRSGGSTHYADSVKGRFTISRDNAKNTVYLQMNSLKPEDTAVYYCNARYPYRGKRKPPDYWGQGTQVTVSS | high polyreactivity |
| QVQLVESGGGLVQAGGSLRLSCAASGFIFIINAMGWYRQAPGKERELVAGIRWSGGSTYYADSVKGRFTISRDNAKNTVYLQMNSLKPEDTAVYYCNKDRGSLTLYTYDYWGQGTQVTVSS | low polyreactivity |
| QVQLVESGGGLVQAGGRLRLSCAASGSILGAYTMGWYRQAPGKERELVAAITRRGGSTYYSDSVKGRFTISRDNAKNTVYLQMNSLKPEDTAVYYCNAEYGVWYDYLVGPYDYWGQGNQVTVSS | low polyreactivity |
| QVQLVESGGGLVQAGGSLRLSCAASGYTFNPYVMGWYSQAPGKERELVAAISSGGSTSYADSVKGRFTISRDNAKNTVYLQMNSLKPEDTAVYYCAADWSYYYSRNYESDYWGQGTQVTVSS | low polyreactivity |
| QVQLVESGGGLVQAGGSLRLSCAASGIIFFSNTMGWYRQAPGKEREFVAAITWSTGNTYYADSVKGRFTISRDNAKNTVYLQMNSLKPEDTAVYYCYAEYLVITWYGGVEFDYWGQGTEVTVSS | low polyreactivity |
| QVQLVESVGGLVQAGGSLRLSCTATGSNFGYNAMGSYRQAPGKEREFVAAISWRGGSTYYADSVKGRLTISRDYAKNTVYLQMNSLKPEDTAVYYCAAVPQGSKRGYYYWGQGTQVTVSS | high polyreactivity |
| QFQLVESGGGLVQAGGSLRLSCAASGFIIEYNTMGWYRQAPGKERELVAAISFIGGRTYYADSVKGRFTISRDNAKNTVYLQMNSMKPEDNAVYYCKTRDGGYYCGARRVLYYYWGQGTQVTLSS | high polyreactivity |
| QVQLVESGGGLVQAGGSLRLSCAAAGSIFSYYAMGWSRPEPGKEREFVATIRRSGASTYYADSVKGRFTISRDNAKNTGYLQMNSLKPEDTAVYYCNAASARRPIYEAARGSKYDYWGQRTQVTVSS | low polyreactivity |
| QVQLVESGGGLVQAGGSLRLSCAASGFTFTVYAMGWYRQAPGKERELVAAIRWSGGSTSYADSVKGRFTISRDNAKNTVYLQMNSLKPEDTAVYYCNARISDAHYQSNYFLVLYDYWGKGTQVTVSS | low polyreactivity |
| QVQLVESGGGLVQAGGSLSLRFAASGFIFYRYAMGWYRQAPWKERELVAAITRSVTSTYYADSVKGRFTISRDNAKNTVYLQMNSLKPEDTAVYYCILRSRYDYYYWGQGTQVTVSS | high polyreactivity |
| QVQLVESGGGLVQAGGSLRLSCAASGRTFVLYTMGWYRQAPGKERELVAAISGSGGRSYYADSVKGRFTISRDHAKNSVYLQMNSLKPEDTAVYYCAAYGQGLPLYGYWGQGTQVTVSS | high polyreactivity |
| QVQLVESGGGLVQAGGSLRLSCAASGITLSSNAMGWYRQAPGKERELVAAITWRTDRTYYADSVKGRFTISRDNAKNTVYLQMNSLKPEDTAVDYCAARTTVSSARYDYWGQGTQVTVSS | high polyreactivity |
